Reference for the values: ChEMBL document CHEMBL4732255

- System: NCI-H157
- experiment: Antiproliferative activity against human NCI-H157 cells assessed as reduction in cell viability measured after 72 hrs by sulforhodamine B assay
- Assay type: functional, cell-based
- measurement.setup: NCI-H157, 72 h
property.measured: IC50 (µM)
One number for each entry, in µM.

# test.smiles, experimental.target, IC50 [µM]
records = [
    ("CO[C@@]1(C)N(/C=C/c2ccccc2)C(=O)C2=C[C@@]3(C(=O)N(C)c4ccccc43)C(=O)N21", "NCI-H157", 8.1),
    ("CC1=C([C@H](C)[C@@H](C)OC=O)C(=O)C2=C(C1=O)[C@@H]1O[C@H](C)[C@@H](C)c3c(C)c(O)cc(c31)O2", "NCI-H157", 32.4),
    ("CC1(C)CC[C@H](O)[C@@]2(C)[C@H]1CC=C1C(=O)OC[C@@]12O", "NCI-H157", 2.9),
    ("CO[C@@]12Cc3ccc(cc3)O[C@H]3[C@@H]4[C@H]5C(=O)[C@](C[C@@H](O)[C@@]5(C)C=C(C)[C@H]4[C@]4(C)C[C@H](C)C[C@H](C)[C@@H]34)(C1)C(=O)N2", "NCI-H157", 17.8),
    ("CO[C@@]1(C)N(CCc2ccccc2)C(=O)c2cc3c4ccccc4n(C)c3c(=O)n21", "NCI-H157", 9.8),
    ("C=C[C@@]1(C)C=C(C)[C@@H]2[C@@H]3[C@H](Oc4ccc(cc4)C[C@]4(OC)C[C@H](C(=O)N4)C(=O)[C@H]31)[C@@H]1[C@@H](C)C[C@@H](C)C[C@]12C", "NCI-H157", 19.6),
    ("COc1cc(O)c2c(c1)C(=O)c1cc(C)cc(O)c1C2=O", "NCI-H157", 3),
    ("O=c1ncc2ncn([C@@H]3O[C@@H](CO)[C@H](O)[C@@H]3O)c2[nH]1", "NCI-H157", 0.9),
    ("C=C[C@@]1(C)C=C(C)[C@@H]2[C@@H]3[C@H](Oc4ccc(cc4)C[C@]45NC(=O)/C(=C(/O)[C@H]31)[C@H]4[C@@H]1C(=O)C(C)=C3[C@H](C)[C@@H](C)O[C@@]3(O)[C@]1(O)O5)[C@@H]1[C@@H](C)C[C@@H](C)C[C@]12C", "NCI-H157", 22.3),
    ("Cc1cc(O)cc(Oc2cc(C)cc(O)c2)c1", "NCI-H157", 20.2),
]

Look at each compound and report its IC50.
1. CO[C@@]1(C)N(/C=C/c2ccccc2)C(=O)c2cc3c([nH]c4ccccc43)c(=O)n21
2. C[C@H]1Oc2c(c(O)c3c4c(c(O)ccc24)OC3=O)C1(C)C
3. Cn1c2ccccc2c2cc3n(c(=O)c21)[C@@](C)(O)N(CCc1ccccc1)C3=O

[15.1, 41.9, 11]

Count: 2. Required value per item: IC50.
1. CC(C)[C@@H](C)/C=C/[C@@H](C)[C@H]1CC[C@H]2C3=CC=C4C[C@@H](O)CC[C@]4(C)[C@H]3CC[C@]12C
2. CC(=O)c1nc(C(=O)NCCc2ccccc2)cc2c1[nH]c1ccccc12

[23.3, 19.4]

Give IC50 for each of the items listed below.
1. O=C1c2cc(O)cc(O)c2C(=O)c2c1cc1c(c2O)[C@@H]2CCO[C@@H]2O1
2. CC(=O)c1nc(C(=O)NCCc2ccccc2)cc2c3ccccc3n(C)c12
3. CC1=C[C@@]2(C)[C@@H]3C(=O)[C@]4(C[C@@H]2O)C[C@@](O)(Cc2ccc(cc2)O[C@H]2[C@H]3[C@@H]1[C@]1(C)C[C@H](C)C[C@H](C)[C@@H]21)NC4=O
4. CO[C@@]1(C)N(/C=C/c2ccccc2)C(=O)c2cc3c4ccccc4n(C)c3c(=O)n21
5. C=C[C@@]1(C)C=C(C)[C@@H]2[C@@H]3[C@H](Oc4ccc(cc4)C[C@@H]4C(=O)NC(=O)[C@@H]4C(=O)[C@H]31)[C@@H]1[C@@H](C)C[C@@H](C)C[C@]12C

[27, 8.6, 6.5, 20.2, 38.5]

// batch mode: one IC50 value per listed entry
1. Cc1cc(O)c2c(c1)C(=O)c1cccc(O)c1C2=O
2. CO[C@@]1(C)N(/C=C\c2ccccc2)C(=O)c2cc3c4ccccc4n(C)c3c(=O)n21
3. CO[C@@]1(C)N(C[C@@H](O)c2ccccc2)C(=O)c2cc3c4ccccc4n(C)c3c(=O)n21

1. 2.7
2. 7.2
3. 22.9
